Assay: chemical genetic growth profiling, strain panel (AID 1159580);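 further: tested at 20 µM; growth read once vehicle control cultures reached saturation at 30 °C; lower values mean less growth of the strain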
Conditions: S. cerevisiae deletion strains, growth OD, locus YGL248W, strain PDE1
About 2,000 (36%) of roughly 5,500 compounds were called active. Another 18% or so got no clear call; they are omitted. No stated cut-off is given here; in the data, active means normalized growth mostly below about 0.91 (no sharp cut-off); inconclusive means no clear call, values can overlap the other calls; inactive means mostly above about 0.92. The list shows a part of the results.
Labels: active, inactive

molecule | group_label
CC1=CC(=O)C2C(C)(C)CCC[C@]2(C)[C@@]1(O)CCc1ccoc1 (stereo partly specified) | inactive
COc1cc(O)c2c(=O)cc(-c3ccc(OC)c(-c4c(O)cc(O)c5c(=O)cc(-c6ccc(O)cc6)oc45)c3)oc2c1 | active
CNC[C@H](O)c1cccc(O)c1 | inactive
COc1ccc(-c2cc(=O)c3c(O)cc(O)cc3o2)cc1O | inactive
COc1cc(C)c2c(=O)c3c(O)cc(OC)cc3oc2c1 | inactive
N#Cc1c(Cl)cccc1Cl | inactive
COc1cc(C)c2c(=O)c3c(O)cc(O)cc3oc2c1 | inactive
CSCCC(N)C(=O)NC(CC(C)C)C(=O)NC(Cc1ccccc1)C(=O)O (stereo unspecified) | inactive
CC1=CC(=O)C(C(C)C)=CC1=O | active
C[C@@H]1CCC2[C@](C)(CO)[C@@H](O)CC[C@]2(C)[C@@]12CC[C@@](CO)(CCO)O2 (stereo partly specified) | inactive
CC(C)(C)NCC(O)COc1cccc2c1C[C@H](O)[C@H](O)C2 (stereo partly specified) | inactive
